Target: HLA-B*44:05 (Homo sapiens, UniProt P01889, A223V/A65T/A93T/A95T/D201E/D98Y/E176V/E187L/E204Q/E69K/G107R/H137Y/K202T/L105A/L119I/N104T/N87E/Q56L/Q94N/R106L/R155S/R180D/S101N/S121R/S35A/S48T/T118I/V36M/W191S/Y91S)
Experiment: MHC binding assay (UV-ligand exchange, β2m ELISA, peptide exchange yield)
Conditions: binding to HLA-B*44:05
Endpoint label: Peptide exchange (MHC class I binding score, peptide exchange yield)

15 (MEAELVRRI; listed as Homo sapiens) [compound 15] | +++ (>50 = +++)
22 (TEEITEGVW; listed as Homo sapiens) [compound 22] | ++++ (>75% = ++++)
135 (QEIDRGQYI; listed as Homo sapiens) [compound 135] | ++++ (>75% = ++++)
301 (AERIMFSDL; listed as Homo sapiens) [compound 301] | ++++ (>75% = ++++)
348 (SEVLLTSISTF; listed as Homo sapiens) [compound 348] | ++++ (>75% = ++++)
44 (SEFGAPRW; listed as Homo sapiens) [compound 44] | +++ (>50 = +++)
295 (QELEQEVISL; listed as Homo sapiens) [compound 295] | +++ (>50 = +++)

// switching to the query substance
Please report the measured Peptide exchange (MHC class I binding score, peptide exchange yield) for 189 (ALNGDIYVW; listed as Homo sapiens) [compound 189] ++++ (>75% = ++++)

Data origin, for the record: patent US12065471B2
